Entry source: ChEMBL document CHEMBL1134915

- Measurement target: Caspase-8 (Homo sapiens)
- Procedure details: Inhibition of Caspase-8 enzyme
Readout kind: IC50 (nM)

Field: example entries. Status: answers known.
# query: IC50 | item CC(C)C[C@H](NC(=O)C(C)Nc1cccc2ccccc12)C(=O)N[C@H]1CC(=O)OC1O (stereo not given in full) | system: Caspase-8 (Homo sapiens)
17

# query: IC50 | item CC(C)C(NC(=O)COc1ccc2ccccc2c1C(=O)O)C(=O)N[C@H]1CC(=O)OC1O (stereo not given in full) | system: Caspase-8 (Homo sapiens)
733

# query: IC50 | item CC(C)C(NC(=O)COc1c(C(=O)O)ccc2ccccc12)C(=O)N[C@H]1CC(=O)OC1O (stereo not given in full) | system: Caspase-8 (Homo sapiens)
48

[P] CC(C)C(NC(=O)CNc1cccc2ccccc12)C(=O)N[C@H]1CC(=O)OC1O (stereo not given in full)
[Q] CC(C)C(NC(=O)CCOc1cccc2ccccc12)C(=O)N[C@H]1CC(=O)OC1O (stereo not given in full)
Sorting ascending by IC50, which comes first: P or Q ? Lab log: write the label of the selected item as the result.
P

* * *

- Measurement target: Caspase-1 (Homo sapiens, UniProt P29466)
- Sequence (P29466 whole entry): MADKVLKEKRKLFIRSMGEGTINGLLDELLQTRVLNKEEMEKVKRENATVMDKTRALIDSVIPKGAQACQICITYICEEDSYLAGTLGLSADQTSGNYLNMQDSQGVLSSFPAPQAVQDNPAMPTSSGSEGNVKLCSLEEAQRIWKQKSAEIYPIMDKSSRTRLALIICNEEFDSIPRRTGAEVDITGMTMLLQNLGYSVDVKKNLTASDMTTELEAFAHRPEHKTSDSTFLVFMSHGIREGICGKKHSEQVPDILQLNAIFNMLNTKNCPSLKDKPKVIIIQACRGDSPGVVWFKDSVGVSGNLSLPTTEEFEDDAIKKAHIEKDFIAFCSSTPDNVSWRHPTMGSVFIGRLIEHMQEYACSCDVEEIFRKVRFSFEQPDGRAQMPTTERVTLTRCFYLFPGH
- Procedure details: Inhibitory concentration of compound required against Caspase-1 enzyme compared to acylated dipeptides
Readout kind: pIC50
Bear in mind: pIC50 is minus log10 of a mol/L concentration; give just that figure.

# query: pIC50 of entry CC(=O)N[C@@H](CC(=O)O)C(=O)N[C@@H](CCC(=O)O)C(=O)N[C@H](C(=O)N[C@H]1CC(=O)OC1O)C(C)C (stereo partly specified)
7.30

* * *

- Measurement target: Caspase-3 (Homo sapiens)
- Sequence (P42574 whole entry): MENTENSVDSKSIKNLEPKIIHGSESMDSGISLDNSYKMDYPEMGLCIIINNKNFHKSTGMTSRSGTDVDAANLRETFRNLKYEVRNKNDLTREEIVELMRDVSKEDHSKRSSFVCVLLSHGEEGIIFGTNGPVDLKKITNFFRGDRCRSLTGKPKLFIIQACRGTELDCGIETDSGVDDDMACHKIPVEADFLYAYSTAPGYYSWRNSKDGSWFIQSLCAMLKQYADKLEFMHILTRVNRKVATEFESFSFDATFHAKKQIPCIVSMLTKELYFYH
- Procedure details: Inhibitory concentration of compound required against Caspase-3 enzyme compared to acylated dipeptides
Readout kind: pIC50
Bear in mind: pIC50 is minus log10 of a mol/L concentration; give just that figure.

# query: pIC50 | item CC(=O)N[C@@H](CC(=O)O)C(=O)N[C@@H](CCC(=O)O)C(=O)N[C@H](C(=O)N[C@H]1CC(=O)OC1O)C(C)C (stereo partly specified) | system: Caspase-3 (Homo sapiens)
8.46

* * *

- Measurement target: Caspase-8 (Homo sapiens, UniProt Q14790)
- Sequence (Q14790 217-374 limits assumed): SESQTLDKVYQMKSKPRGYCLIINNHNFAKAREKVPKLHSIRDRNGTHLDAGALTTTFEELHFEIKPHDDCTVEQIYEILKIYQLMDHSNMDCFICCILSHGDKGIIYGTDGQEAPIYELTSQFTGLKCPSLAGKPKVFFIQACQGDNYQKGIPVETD
- Sequence (Q14790 385-479 limits assumed): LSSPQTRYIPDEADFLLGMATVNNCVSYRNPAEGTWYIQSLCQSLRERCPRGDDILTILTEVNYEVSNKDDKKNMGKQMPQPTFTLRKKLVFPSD
- Procedure details: Inhibition of Caspase-8 enzyme
pIC50: −log10 of the molar value.
Readout kind: pIC50

# query: pIC50 of entry CC(C)C(NC(=O)COc1cc2ccccc2cc1NS(=O)(=O)C(F)(F)F)C(=O)N[C@H]1CC(=O)OC1O (some centres undefined)
5.85

[A] CC(C)C(NC(=O)COc1cccc2ccccc12)C(=O)N[C@H]1CC(=O)OC1O (some centres undefined)
[B] CC(C)CC(NC(=O)[C@H](CCC(=O)O)Oc1cccc2ccccc12)C(=O)N[C@H]1CC(=O)OC1O (some centres undefined)
[C] CC(C)CC(NC(=O)[C@@H](CCC(=O)O)Oc1cccc2ccccc12)C(=O)N[C@H]1CC(=O)OC1O (some centres undefined)
Hey, quick one: sort these by pIC50, low to high? Please list the labels in the order you were asked to rank them.
A, B, C
(A: 5.92, B: 7.51, C: 7.92)

* * *

- Measurement target: Caspase-7 (Homo sapiens)
- Procedure details: Inhibitory concentration of compound required against Caspase-7 enzyme compared to acylated dipeptides
Readout kind: IC50 (nM)
API: value field is a number in nM; no unit string.

# query: IC50 of entry CC(=O)N[C@@H](CC(=O)O)C(=O)N[C@@H](CCC(=O)O)C(=O)N[C@H](C(=O)N[C@H]1CC(=O)OC1O)C(C)C (stereo partly specified)
10

* * *

- Measurement target: Caspase-1 (Homo sapiens, UniProt P29466)
- Procedure details: Inhibition of Caspase-1 enzyme
Readout kind: IC50 (nM)

# query: IC50 of entry CC(C)C(NC(=O)COc1cc2ccccc2cc1NS(=O)(=O)C(F)(F)F)C(=O)N[C@H]1CC(=O)OC1O (stereo partly specified)
2180

# query: IC50 of entry CC(C)C(NC(=O)COc1ccc2ccccc2c1C(=O)O)C(=O)N[C@H]1CC(=O)OC1O (stereo partly specified)
2960

# query: IC50 of entry CC(C)C(NC(=O)COc1c(C(=O)O)ccc2ccccc12)C(=O)N[C@H]1CC(=O)OC1O (stereo partly specified)
385

# query: IC50 of entry CC(C)C(NC(=O)CNc1cccc2ccccc12)C(=O)N[C@H]1CC(=O)OC1O (stereo partly specified)
15

# query: IC50 of entry CC(C)CC(NC(=O)CNc1cccc2ccccc12)C(=O)N[C@H]1CC(=O)OC1O (stereo partly specified)
33

# query: IC50 of entry CC(C)C(NC(=O)COc1cccc2c(NS(=O)(=O)C(F)(F)F)cccc12)C(=O)N[C@H]1CC(=O)OC1O (stereo partly specified)
127

# query: IC50 of entry CC(C)CC(NC(=O)CNc1cccc(Oc2ccccc2)c1)C(=O)N[C@H]1CC(=O)OC1O (stereo partly specified)
330

# query: IC50 of entry CC(C)CC(NC(=O)CNCC(Cc1ccccc1)c1ccccc1)C(=O)N[C@H]1CC(=O)OC1O (stereo partly specified)
790

# query: IC50 of entry CC(C)C(NC(=O)COc1cccc2ccccc12)C(=O)N[C@H]1CC(=O)OC1O (stereo partly specified)
336

[A] CC(C)C(NC(=O)CCOc1cccc2ccccc12)C(=O)N[C@H]1CC(=O)OC1O (stereo partly specified)
[B] CC(C)C(NC(=O)COc1cc2ccccc2cc1C(=O)O)C(=O)N[C@H]1CC(=O)OC1O (stereo partly specified)
I'd appreciate it if you could identify which of A and B has the greater IC50. Lab log: write the label of the selected item as the result.
B

* * *

- Measurement target: Caspase-7 (Homo sapiens)
- Sequence (P55210 whole entry): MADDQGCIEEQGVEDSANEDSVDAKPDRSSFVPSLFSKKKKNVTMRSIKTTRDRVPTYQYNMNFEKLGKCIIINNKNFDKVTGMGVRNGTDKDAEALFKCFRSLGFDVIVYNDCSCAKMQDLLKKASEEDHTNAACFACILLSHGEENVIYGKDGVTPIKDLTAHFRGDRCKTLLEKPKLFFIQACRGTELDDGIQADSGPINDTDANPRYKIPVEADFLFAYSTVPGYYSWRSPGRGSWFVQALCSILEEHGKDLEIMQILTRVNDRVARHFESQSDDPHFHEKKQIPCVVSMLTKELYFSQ
- Procedure details: Inhibition of Caspase-7 enzyme
Readout kind: IC50 (nM)

Field: example entries. Status: answers known.
# query: IC50 of entry CC(C)CC(NC(=O)[C@H](CCC(=O)O)Oc1cccc2ccccc12)C(=O)N[C@H]1CC(=O)OC1O (stereo not given in full)
130

# query: IC50 of entry CC(C)C(NC(=O)COc1cc2ccccc2cc1C(=O)O)C(=O)N[C@H]1CC(=O)OC1O (stereo not given in full)
17000

# query: IC50 of entry CC(C)CC(NC(=O)[C@@H](CCC(=O)O)Oc1cccc2ccccc12)C(=O)N[C@H]1CC(=O)OC1O (stereo not given in full)
587

[a] CC(C)C(NC(=O)CCOc1cccc2ccccc12)C(=O)N[C@H]1CC(=O)OC1O (stereo not given in full)
[b] CC(C)CC(NC(=O)CNc1cccc(Oc2ccccc2)c1)C(=O)N[C@H]1CC(=O)OC1O (stereo not given in full)
I'd appreciate it if you could identify which of a and b has the greater IC50. Lab log: write the label of the selected item as the result.
a
(a: 37000 nM, b: 2670 nM)
